- subjectOfTest: UniProtKB P21554
- Sequence (P21554 whole entry): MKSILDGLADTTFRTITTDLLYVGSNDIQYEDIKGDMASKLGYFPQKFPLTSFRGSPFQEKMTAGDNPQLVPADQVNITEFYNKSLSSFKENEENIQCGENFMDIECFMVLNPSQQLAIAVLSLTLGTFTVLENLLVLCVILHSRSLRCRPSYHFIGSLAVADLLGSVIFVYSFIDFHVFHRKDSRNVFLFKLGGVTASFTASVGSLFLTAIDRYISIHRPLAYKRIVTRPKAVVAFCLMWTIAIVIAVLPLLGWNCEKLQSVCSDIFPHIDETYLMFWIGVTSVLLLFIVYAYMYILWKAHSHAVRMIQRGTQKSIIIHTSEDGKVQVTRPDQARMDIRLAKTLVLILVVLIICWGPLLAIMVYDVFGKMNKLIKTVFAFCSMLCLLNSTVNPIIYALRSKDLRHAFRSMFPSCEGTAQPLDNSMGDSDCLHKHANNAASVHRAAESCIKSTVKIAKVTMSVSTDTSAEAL
- testName: Displacement of [3H]CP-55940 from human cloned CB1 receptor by scintillation spectrometry
# note: boundary value 800 nM maps to no; Ki below it maps to yes

Answered cases to consult:
compoundstructurestring=Cc1ccc(-c2nc(C(C)(C)C)c[nH]2)cc1S(=O)(=O)N1CCOCC1 classification=no
compoundstructurestring=Cc1ccc(C(=O)N[C@@H]2C(C)(C)[C@@H]3CC[C@@]2(C)C3)cc1S(=O)(=O)N1CCOCC1 classification=yes
compoundstructurestring=Cc1ccc(-c2nc(CC3CCCCC3)cs2)cc1S(=O)(=O)N1CCOCC1 classification=yes
compoundstructurestring=Cc1ccc(-c2cc(C(C)(C)C)[nH]n2)cc1S(=O)(=O)N1CCOCC1 classification=no
compoundstructurestring=Cc1ccc(-c2nnn(CC3CCCCC3)n2)cc1S(=O)(=O)N1CCOCC1 classification=yes
compoundstructurestring=Cc1ccc(-c2n[nH]c(CC3CCCCC3)n2)cc1S(=O)(=O)N1CCOCC1 classification=yes

IN: Is the reported Ki for `Cc1ccc(NC(=O)[C@H]2C(C)(C)[C@@H]3CC[C@@]2(C)C3)cc1S(=O)(=O)N1CCOCC1` strictly below 800 nM?
OUT: no

IN: I'd appreciate it if you could check whether `Cc1ccc(-c2cc(CC(C)(C)C)[nH]n2)cc1S(=O)(=O)N1CCOCC1` has Ki smaller than 800 nM.
OUT: yes

IN: Lab note: Ki threshold 800 nM. Does this compound come in strictly under it? `Cc1ccc(NC(=O)C2(C)CCCCC2)cc1S(=O)(=O)N1CCOCC1`
OUT: no

IN: # check: Ki < 800 nM for `Cc1ccc(NC(=O)C(C(C)(C)C)C(C)(C)C)cc1S(=O)(=O)N1CCOCC1`
OUT: no

IN: Dear reviewer, please state whether `Cc1ccc(-c2noc(CC(C)(C)C)n2)cc1S(=O)(=O)N1CCOCC1` has Ki strictly beneath 800 nM.
OUT: yes

IN: Quick check: does `Cc1ccc(NC(=O)C2C(C)(C)C2(C)C)cc1S(=O)(=O)N1CCOCC1` have Ki under 800 nM?
OUT: no

###

- Organism: Homo sapiens
- testName: Ratio of Ki for human cloned CB1 receptor to Ki for human cloned CB2 receptor
parameter: Ratio Ki

Batch: Ratio Ki for all items listed.
1. Cc1ccc(-c2n[nH]c(CC(C)(C)C)n2)cc1S(=O)(=O)N1CCOCC1
2. Cc1ccc(NC(=O)C2CCCCC2(C)C)cc1S(=O)(=O)N1CCOCC1 (configuration not stated)

OUT:
[1.6, 72]

Lab note: each compound below needs its Ratio Ki filled in.
1. Cc1ccc(-c2cnc(C(C)(C)C)[nH]2)cc1S(=O)(=O)N1CCOCC1
2. Cc1ccc(-c2nc(CC3CCCCC3)cs2)cc1S(=O)(=O)N1CCOCC1
3. Cc1ccc(-c2noc(CC3CCCCC3)n2)cc1S(=O)(=O)N1CCOCC1
4. Cc1ccc(-c2noc(CC(C)(C)C)n2)cc1S(=O)(=O)N1CCOCC1
5. Cc1ccc(-c2noc(C(C)(C)C)n2)cc1S(=O)(=O)N1CCOCC1
6. Cc1ccc(NC(=O)c2ccccc2Cl)cc1S(=O)(=O)N1CCOCC1
7. Cc1ccc(NC(=O)c2cccc(Cl)c2)cc1S(=O)(=O)N1CCOCC1
8. Cc1ccc(C(=O)NC(C(C)(C)C)C(C)(C)C)cc1S(=O)(=O)N1CCOCC1

OUT:
1: 9.4; 2: 17; 3: 5.9; 4: 4.5; 5: 6.8; 6: 6.5; 7: 2.3; 8: 9
